# Method summary: amyloid nucleation score (Sup35N fusion, yeast selection) (log enrichment); library NNK2; higher = more nucleation; inactive = no reads after selection;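 further: zero at mode of non-aggregating sequences after 7 days selection at 30°C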
Recorded endpoint: amyloid nucleation score

YDYYLMVISFRFVNFYNGVG : inactive
YSSMGDNSRVRSFFVAVAGG : inactive
KVFNSLASYSSIDLWCVVAG : inactive

---

Would you kindly list amyloid nucleation score for each of these substances?
# Method summary: amyloid nucleation score (Sup35N fusion, yeast selection) (log enrichment); library NNK1; higher = more nucleation; inactive = no reads after selection
Keep the answer to the number alone.

Query block: Reported amyloid nucleation score, substance "YATGDCDVLMYRLGMNKKSS" : ____
Result block: 0.488

Query block: Reported amyloid nucleation score, substance "RVMFACF" : ____
Result block: 0.15

Query block: Reported amyloid nucleation score, substance "VFSKNFRVVIFTSNRSLFNK" : ____
Result block: 0.595

Query block: Reported amyloid nucleation score, substance "DFYYNALIREVGQ" : ____
Result block: -0.825

Query block: Reported amyloid nucleation score, substance "TLRHALLRQTLSNLRQDGV" : ____
Result block: -0.009

Query block: Reported amyloid nucleation score, substance "VRSFNRGFKMHTYIPTHFLW" : ____
Result block: -0.55

Query block: Reported amyloid nucleation score, substance "FSDQTFSDLGMIEFRGFLWS" : ____
Result block: 0.343

Query block: Reported amyloid nucleation score, substance "RPGGGAACAVRGRLPVCQLG" : ____
Result block: -1.13

Query block: Reported amyloid nucleation score, substance "LLSATFLLMSTCY" : ____
Result block: 0.34

Query block: Reported amyloid nucleation score, substance "VEMGIIFR" : ____
Result block: -0.339

Query block: Reported amyloid nucleation score, substance "CVFRCVLVKWSVNMVLLLWF" : ____
Result block: 0.536

Query block: Reported amyloid nucleation score, substance "FINGFGEDLKHIREVEVYLY" : ____
Result block: 4.07

Query block: Reported amyloid nucleation score, substance "TFEYDT" : ____
Result block: 0.332

Query block: Reported amyloid nucleation score, substance "VCVLFELMSKVKGQKARKDQ" : ____
Result block: 0.425

Query block: Reported amyloid nucleation score, substance "MIMKYLSDVLTRIGHDIFFA" : ____
Result block: -0.872

Query block: Reported amyloid nucleation score, substance "HGLNVTLDVHGESYLHIYVW" : ____
Result block: -0.036

Query block: Reported amyloid nucleation score, substance "ACSPSLVL" : ____
Result block: 1.52

Query block: Reported amyloid nucleation score, substance "VDYSLSENSTVLLNIWDL" : ____
Result block: -0.008

Query block: Reported amyloid nucleation score, substance "LIALLLAWDMYI" : ____
Result block: 0.18
